// data source = patent US11390621B2

- experiment-notes: In vivo pharmacokinetic studies in rats
- Parameters: species or system SD rats
- test-context: Sprague-Dawley (SD), rat, plasma, po, 10 mg/kg, rats, PO 10 mg/kg repeat dose, Day 5, individual animals (ID 4, 5, 6)
reported-endpoint: half-life (h)
Report the figure in h without appending any unit label.

stdin: Answer with reported half-life of CC(C)(N)c1csc(C(=O)c2c[nH]c3cc(F)ccc23)n1 [ARI-226]
stdout: 1.05

---

- target-entity: AhR (Homo sapiens, UniProt P35869)
- Construct: host or cells: human HepG2 cells
- Sequence (P35869 11-848): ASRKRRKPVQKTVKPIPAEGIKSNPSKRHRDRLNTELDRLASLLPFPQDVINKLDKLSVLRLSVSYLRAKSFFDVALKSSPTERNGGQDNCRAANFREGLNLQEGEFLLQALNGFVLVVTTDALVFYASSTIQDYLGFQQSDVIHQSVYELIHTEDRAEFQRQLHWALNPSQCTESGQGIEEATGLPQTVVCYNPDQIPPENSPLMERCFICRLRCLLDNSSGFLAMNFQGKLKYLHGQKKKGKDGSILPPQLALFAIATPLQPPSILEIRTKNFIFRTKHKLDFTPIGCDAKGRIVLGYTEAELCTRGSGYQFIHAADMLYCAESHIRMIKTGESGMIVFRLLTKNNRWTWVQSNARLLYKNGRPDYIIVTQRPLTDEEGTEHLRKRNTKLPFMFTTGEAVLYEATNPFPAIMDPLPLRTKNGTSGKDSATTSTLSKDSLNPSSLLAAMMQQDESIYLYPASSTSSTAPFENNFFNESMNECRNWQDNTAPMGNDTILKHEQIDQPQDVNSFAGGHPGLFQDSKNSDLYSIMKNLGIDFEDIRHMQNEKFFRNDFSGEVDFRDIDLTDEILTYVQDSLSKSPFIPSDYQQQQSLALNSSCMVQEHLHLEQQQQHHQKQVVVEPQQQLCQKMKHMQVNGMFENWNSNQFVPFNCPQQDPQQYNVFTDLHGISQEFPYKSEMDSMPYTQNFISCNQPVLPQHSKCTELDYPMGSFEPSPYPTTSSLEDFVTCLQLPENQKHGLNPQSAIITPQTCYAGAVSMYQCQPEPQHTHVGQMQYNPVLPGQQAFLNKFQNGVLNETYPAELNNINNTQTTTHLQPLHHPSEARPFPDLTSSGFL
- experiment-notes: EROD assay (7-ethoxy-resorufin-O-deethylase; CYP1A1 activity) in human HepG2 cells
- Type: cell-based
- test-context: human HepG2 cells, Plate 2
reported-endpoint: EC50 (µM)
I only need the number, in µM, no unit after it.

| compound | target-entity | EC50 / µM |
| --- | --- | --- |
| CC[C@H](N)c1csc(C(=O)c2c[nH]c3ccc(F)cc23)n1 [ARI-218] | AhR (Homo sapiens, UniProt P35869) | 0.0063 |
| CCC(=O)c1csc(C(=O)c2c[nH]c3cc(F)ccc23)n1 [ARI-143] | AhR (Homo sapiens, UniProt P35869) | 0.0952 |

stdin: Find the measured EC50 of NC1(c2csc(C(=O)c3c[nH]c4cc(F)ccc34)n2)CC1 [ARI-225] and report it.
stdout: 0.0468

stdin: Entry CC(C)(N)c1csc(C(=O)c2c[nH]c3cc(F)ccc23)n1 [ARI-226] needs its EC50 filled in; supply it.
stdout: 0.0246
